# Tested on: TK-10
# procedure-text: NCI tumour cell line growth inhibition, 48 h
Calls of active or inactive are those of the source. Rule as the data show it: active = GI50 up to about 1.1 µM and inactive = higher.
parameter: GI50

# count of solved cases: 6
O=C(O)CNCCc1ccccc1
> 100 µM (inactive)
CCOP(=O)(OCC)C(C)(CC)N/C(=N\C1=NC(C(F)(F)F)(C(F)(F)F)N=C(C(F)(F)F)O1)NC(NC(C)=O)(C(F)(F)F)C(F)(F)F (stereo not given)
46.9 µM (inactive)
CC(C)OCC1CC(CC(=O)Nc2nncs2)C(=O)O1 (stereo not given)
> 100 µM (inactive)
S=c1[nH]nc(Cn2c3ccc(Br)cc3c3nc4ccccc4nc32)n1C1CCCCC1
> 47.8 µM (inactive)
CN(C)/C=C/c1nnnn1-c1ccc(I)cc1
30.5 µM (inactive)
CC1SC2(CCCCC2)N(NC(=O)CSc2nc3ccc(Cl)cc3c(=O)n2-c2ccccc2)C1=O (stereo not given)
47.1 µM (inactive)

Would you mind giving GI50 for every molecule in the list below?
1. C/C(=N\Nc1nc2ccccc2[nH]1)c1ccncn1
2. CCOC(=O)C(Cl)(NC(=O)OCc1ccccc1)C(F)(F)F (stereo not given)
3. O=C1NC(=O)C(c2c[nH]c3cc(Br)ccc23)=C1c1cn(C(c2ccccc2)(c2ccccc2)c2ccccc2)cn1
4. CC1=C(C(=O)NCc2ccccc2)C(c2ccc(N(C)C)cc2)C(C(=O)NCc2ccccc2)=C(C)N1

1: 3.43 µM (inactive); 2: > 100 µM (inactive); 3: 16.2 µM (inactive); 4: > 100 µM (inactive)

---

# System: NCI-H460
# procedure-text: NCI tumour cell line growth inhibition, 48 h
Activity calls are given as the source filed them. Cut-off read from the data, not from the text of the source: active = GI50 up to about 1.1 µM and inactive = higher.
parameter: GI50

Below are worked cases with known answers.
CCCCCCCCOCC(O)COC(=O)CCCCCCC (centres undefined)
> 100 µM (inactive)
[O-]/[N+](=N/c1ncc(-c2ccccc2)cn1)c1ncc(-c2ccccc2)cn1
> 100 µM (inactive)
Cc1ccc2occ/c(=N\Nc3ccccc3)c2c1
56.9 µM (inactive)

Moving on to the next compound.
Specify reported GI50 for the compound shown: c1ccc(C2Nc3ccccc3C3OCCCC23)cc1 (centres undefined)
> 10 µM (inactive)

---

# Tested on: COLO 205
# procedure-text: NCI tumour cell line growth inhibition, 48 h
Active and inactive are the calls of the source. No stated cut-off is given here; in the data, active = GI50 up to about 1.1 µM and inactive = higher. Where a SMILES comes first, the peptide text is derived from it. [ ]: non-standard residue; d: D form. The star is where a group is joined. ξ: configuration not given here. X4 = COc1ccc(C(N*)c2ccc(OC)cc2)cc1; NMeF = CN[C@@H](Cc1ccccc1)C(=O)O; NMeD = CN[C@@H](CC(=O)O)C(=O)O; NMeV = CN[C@H](C(=O)O)C(C)C; ξNMeV = CNC(C(=O)O)C(C)C; Boc = CC(C)(C)OC(=O)*; ξNMeA = CNC(C)C(=O)O; ξV = CC(C)C(N)C(=O)O
parameter: GI50

Use these answered entries as a reference point.
CCCC1NC(=O)C(CC(C)C)NC(=O)c2cccc(n2)C(=O)NC(CC(C)C)C(=O)NC(CCC)C(=O)NC(C(=O)OC)CCCCNC1=O (stereo not given)
40.6 µM (inactive)
O=C1Sc2ccccc2C(=O)N2CCSC12 (stereo not given)
> 100 µM (inactive)
O=C(c1ccco1)c1ccccc1C(=O)c1ccco1
> 100 µM (inactive)
O=C(Oc1ccc(C(c2c(O)c3ccccc3oc2=O)c2c(O)c3ccccc3oc2=O)cc1)c1ccc(C(=O)c2ccccc2)cc1
29.2 µM (inactive)
COC(=O)/C=C\C(C#N)(C#N)/N=C/c1ccc(Br)s1
2.31 µM (inactive)
COc1cc(C2c3cc4c(cc3[C@@H](Nc3ccc(F)cc3)C3COC(=O)[C@H]23)OCO4)cc(OC)c1O (stereo not given in full)
2.03 µM (inactive)
CCOP(=O)(OCC)C(C)(CC)N/C(=N\C1=NC(C(F)(F)F)(C(F)(F)F)N=C(C(F)(F)F)O1)NC(NC(C)=O)(C(F)(F)F)C(F)(F)F (stereo not given)
16.1 µM (inactive)
O=c1c2cccnc2[nH]c2ccc3cn[nH]c3c12
> 10 µM (inactive)

Hey, can you go through the list below and give me GI50 for every item?
1. Cc1ccc(/C(Cl)=C/C=C(C#N)C#N)cc1
2. CN(C)/N=C1\CC(c2ccccc2)C(C#N)(C#N)C1(C#N)C#N (stereo not given)
3. CC1=C(C#N)c2nc3ccccc3n2C(=O)C1(C)CCO (stereo not given)
4. NC(CCCCCP(=O)(c1ccccc1)C1C=CC=CC1)C(=O)O (stereo not given)

1: 3.31 µM (inactive); 2: 5.56 µM (inactive); 3: > 100 µM (inactive); 4: > 100 µM (inactive)

Below are 6 compounds. Give each one its GI50.
1. CC(C)(C)COC1C2(OCCO2)C2CCC1(C)C2(C)C (stereo not given)
2. Cc1c(CNc2ccc(C(=O)NC(CC(=O)O)C(=O)O)cc2)ccc2nc(N)nc(N)c12 (stereo not given)
3. COc1ccc(C(NC(=O)C[C@@H](C(=O)N(C)C(C)C(=O)O)N(C)C(=O)[C@@H]2CCCN2C(=O)[C@H](C(C)C)N(C)C(=O)C(C(C)C)N(C)C(=O)[C@H](Cc2ccccc2)N(C)C(=O)C(NC(=O)OC(C)(C)C)C(C)C)c2ccc(OC)cc2)cc1 (stereo not given in full) (Boc-[ξV][NMeF][ξNMeV][NMeV]P[NMeD](X4)[ξNMeA]-OH)
4. COC(=O)C1(O)C(c2ccccc2)=NC2(C)CCCC21 (stereo not given)
5. COC(=O)CCCC1(CCCC(=O)OC)CCCCCCCCC(CCCC(=O)OC)(CCCC(=O)OC)C(=O)C1=O
6. COc1ccc(N2C(=O)C3c4[nH]c5ccccc5c4C4CCCCCCC4C3C2=O)cc1 (stereo not given)

1. 28.6 µM (inactive)
2. > 9.42 µM (inactive)
3. 20.4 µM (inactive)
4. > 100 µM (inactive)
5. > 100 µM (inactive)
6. 13.2 µM (inactive)

// for each compound below, give its GI50
1. O=C(O)CCSC(=O)Nc1cccc(F)c1
2. Oc1ccc2oc3c(O)c4ccccc4cc3c2c1
3. CCCCCCCCCCCCCCCC(=O)OCC1OC(OC)C(NC(=O)N(CCCl)N=O)C(O)C1O (stereo not given)
4. CC(CC(C)[C@H]1CCC2[C@H]3C(CC[C@@]21C)[C@@]1(C)CCC(O)C[C@H]1C[C@@H]3O)C(=O)O (stereo not given in full)
5. c1ccc([P+](CCC[P+](c2ccccc2)(c2ccccc2)c2ccccc2)(c2ccccc2)c2ccccc2)cc1
6. O=c1cc(N2CCOCC2)[nH]c(=O)n1-c1ccc(F)cc1

1. > 100 µM (inactive)
2. 10.6 µM (inactive)
3. 19.2 µM (inactive)
4. > 100 µM (inactive)
5. 21.8 µM (inactive)
6. > 100 µM (inactive)

---

# System: 786-0
# procedure-text: NCI tumour cell line growth inhibition, 48 h
The source made the active and inactive calls. No stated cut-off is given here; in the data, active = GI50 up to about 1.1 µM and inactive = higher.
For each entry below, report its GI50 value.

The examples below pair each entry with its known result.
O=C1OC(c2ccco2)=N/C1=C\c1ccc(Cl)c(Cl)c1
38 µM (inactive)
OC1c2ccccc2C2(O)C1C(c1ccccc1)C(c1ccccc1)C2(O)c1ccccc1 (stereo not given)
11.5 µM (inactive)
O=C(Cc1nc2ccccc2c(=O)n1-c1c(Cl)cccc1Cl)c1ccncc1
24.6 µM (inactive)
O=C1/C(=C/c2cccc(Oc3ccccc3)c2)N=C(c2ccccc2)N1c1nc2ccc(Sc3ccccc3)cc2[nH]1
32.3 µM (inactive)
COC(=O)[C@@H](OC(C)=O)[C@@H](OC(C)=O)c1nnc2ccc(Cl)nn12
> 100 µM (inactive)

Each compound below has a recorded value; state its GI50.
1. CC(C)(C)c1nc2c(o1)/C(=N\c1ccc(F)cc1)c1ccccc1C2=O
2. CCOP(=O)(OCC)C(C)(CC)N/C(=N\C1=NC(C(F)(F)F)(C(F)(F)F)N=C(C(F)(F)F)O1)NC(NC(C)=O)(C(F)(F)F)C(F)(F)F (stereo not given)
3. N#Cc1c(N)[nH]c(=S)c(C#N)c1-c1cccc(Cl)c1
4. CCOC(=O)NNC(=O)NCc1ccccc1CNC(=O)NNC(=O)OCC
5. CCOC(=O)/C(=C/c1ccco1)P(=O)(OCC)OCC

1: 27.2 µM (inactive); 2: 37.3 µM (inactive); 3: 18.6 µM (inactive); 4: > 100 µM (inactive); 5: > 100 µM (inactive)

Below are 7 compounds. Give each one its GI50.
1. COc1ccc(C(=O)N=C2N(c3ccccc3)C(=N/c3ccccc3)/C(=N\c3ccccc3)N2c2ccccc2)cc1
2. O=C1C2C3CCC(C2C(=O)N1CO)C1C2C(=O)N(CO)C(=O)C2C31 (stereo not given)
3. COc1ccc(C2[C@H]3C(=O)N(c4ccc(Cc5ccc(N6C(=O)[C@@H]7ON(c8ccccc8)C(c8ccc(OC)cc8)[C@@H]7C6=O)cc5)cc4)C(=O)[C@H]3ON2c2ccccc2)cc1 (stereo not given in full)
4. C/C(=N\OCC(O)CNC(C)C)c1ccc2c(c1)NC(=O)CS2 (stereo not given)
5. CNC(=O)c1nnn(Cc2ccccc2)c1S
6. Nc1ncnc2c1ncn2C1C=C(CO)C(O)C1O (stereo not given)
7. C(=N\c1ccc(-c2nc3ccccc3[nH]2)cc1)/c1ccc[nH]1

["17.9 µM (inactive)", "43.3 µM (inactive)", "> 100 µM (inactive)", "> 100 µM (inactive)", "> 100 µM (inactive)", "4.17 µM (inactive)", "83.4 µM (inactive)"]

# per-item lookup of GI50; items listed below
1. COc1cc(/C=C2\C(=O)N(c3cccc([N+](=O)[O-])c3)C(c3ccccc3)S2(=O)=O)cc(OC)c1OC (stereo not given)
2. CC(N)(Cc1c[nH]c2ccccc12)C(=O)O (stereo not given)
3. Oc1ccc2oc3c(O)c4ccccc4cc3c2c1

1. > 100 µM (inactive)
2. > 100 µM (inactive)
3. 5.93 µM (inactive)
